molecular target: Serine/threonine-protein phosphatase PP1-alpha catalytic subunit (Homo sapiens); test: PP1 inhibitors on glycogen phosphorylase dephosphorylation, late-stage follow-up, PP1 inhibitor probe project, biochemical, radiolabel, 32P-phosphorylase substrate, single concentration (AID 652110); conditions: PP1 dephosphorylation of 32P-glycogen phosphorylase, at 50 µM, stronger effect = higher value
property label: inhibition (%)
Express it in %; write the number only.

The examples below pair each entry with its known result.
compound	assay value
Oc1ccc(/C=N/Nc2cc(N3CCOCC3)nc(N3CCOCC3)n2)c(O)c1	20.3
N#Cc1c(N2CCCC(O)C2)nc(N)c2c(N)nc3c(c12)CC(=O)N3C12CC3CC(CC(C3)C1)C2 (configuration not stated)	24.2

Recorded inhibition (compound `O=c1[nH]c(Nc2ccccc2)cc2ccccc12` ): 19

Recorded inhibition (compound CCOC(=O)c1sc(N2C(=O)C(O)=C(C(=O)c3ccco3)C2c2cccc([N+](=O)[O-])c2)nc1C (configuration not stated) ): 51.3

Recorded inhibition (compound `COc1cnc(-c2ccccn2)nc1Oc1cccc(Cl)c1` ): 3.5

Recorded inhibition (compound `COc1cnc(-c2ccccn2)nc1Sc1ccc(C)cc1` ): 9.79

Recorded inhibition (compound `CCCCN(CC)c1nc(N)c2c(N)nc(OCC)cc2c1C#N` ): 17.2
